Tested on: SF-295 CNS
method description: NCI-60 one-dose screen, 48 h
measurement setup: 10 µM
About 83,000 compounds went through this panel and 20% of them were active in at least one assay; those are over-represented in the sample as a whole. Active and inactive are the calls of the source. Rule for the calls: active = growth percent below 10; inactive = the rest.
Possible outcomes: true = active, false = inactive

compound	system name	assigned label
Cc1ccc(-c2nc(Nc3ccccc3C(=O)O)c3ccccc3n2)cc1	SF-295 CNS	true
O=C(CSc1nnc(-c2ccc3nc(-c4ccc(Cl)cc4)[nH]c3c2)o1)Nc1ccc(Br)cc1	SF-295 CNS	true
Cn1cc(-c2cc(N)n3nc(-c4c[nH]c5ccc(Br)cc45)cc3n2)c2cc(Br)cnc21	SF-295 CNS	true
CN1C(=O)N(C)C2SC(N/N=C/c3ccc(F)cc3)=NC21 (configuration not stated)	SF-295 CNS	false
COc1ccccc1[C@H]1C(C(=O)c2ccc(O)cc2)C2(N[C@@H]1c1ccccc1)C(=O)Nc1ccc(Br)cc12 (some centres not stated)	SF-295 CNS	false
Cc1cc(=O)oc2cc(OCCCCOc3ccc(/C=C/C(=O)Nc4cccc(Cl)c4)cc3)ccc12	SF-295 CNS	false
N#Cc1c(NC(=O)c2ccc(C(O)(C(F)(F)F)C(F)(F)F)cc2)sc2c1CCC(=O)C2	SF-295 CNS	true
O=C(Nc1cccc(C(F)(F)F)c1)c1cncc(C#Cc2cnc3ccc(N4CCOCC4)nn23)c1	SF-295 CNS	true
O=C1NC(=NC23CC4CC(CC(C4)C2)C3)N/C1=C\c1ccc2ncoc2c1	SF-295 CNS	false
CCOC(=O)C1=C(N)N(c2ccccc2)C2=C(C(=O)CC(C)(C)C2)C1c1ccccc1OC (configuration not stated)	SF-295 CNS	false
COc1ccc(-c2nc(Nc3ccccc3S(N)(=O)=O)c3ccccc3n2)cc1	SF-295 CNS	false
Cc1ccc(NCC(=O)Nn2c(COc3ccccc3)nc3ccccc3c2=O)cc1	SF-295 CNS	false
O=c1oc2ccc(-c3ccc(F)cc3F)cc2c(=O)n1-c1ccc(F)cc1	SF-295 CNS	true
CC(C)CCSc1nc(NC2CC2)c(C#N)c(-c2ccc(C(C)C)cc2)n1	SF-295 CNS	false
C#CCNC(=O)CCC(=O)OC[C@]12CC[C@@H](C(=C)C)[C@@H]1C1CC[C@@H]3[C@@]4(C)CCCNC(C)(C)[C@@H]4CC[C@@]3(C)[C@]1(C)CC2 (some centres not stated)	SF-295 CNS	true
CC(=O)Nc1ccc(-n2cnc3cc(-c4ccc(O)cc4)ccc32)cc1F	SF-295 CNS	true
CC(C)c1ccc(C(=O)Nc2sc3c(c2C(N)=O)CCC(=O)C3=O)cc1	SF-295 CNS	false
Cc1ccc(C(=O)CSc2nnc(-c3c[nH]c4ccccc34)n2-c2ccccc2)cc1	SF-295 CNS	false
O=C(NO)c1ccc(CNc2nc(-c3ccccc3)c3ccccc3n2)cc1	SF-295 CNS	true
O=C(O)CCCCCCCCCCN1C(=O)/C(=C/c2cnc(-c3ccc(Cl)cc3)s2)SC1=S	SF-295 CNS	true
COC(=O)c1c(C(=O)OC)c2n(c1C)[C@@H]([C@@H](C)[C@H]1CC[C@H]3[C@@H]4CCC5=CC(=O)CC[C@]5(C)[C@H]4CC[C@]13C)SC2	SF-295 CNS	false
O=C(CNc1nc(-c2ccccc2)cs1)Nc1cccc(Cl)c1	SF-295 CNS	false
Cc1ccc(-c2nc(Nc3ccc(S(N)(=O)=O)cc3)c3ccccc3n2)cc1	SF-295 CNS	false
COc1ccc(-c2cc(C(=O)N=Nc3c(O)[nH]c4ccccc34)c3ccccc3n2)cc1	SF-295 CNS	true
O=c1[nH]c2ccc(Cl)cc2cc1CSc1ccc(Nc2nccc(-c3ccc4ccccc4c3)n2)cc1	SF-295 CNS	false
O=C(/C=C/Nc1ccc(F)cc1F)c1ccc2c(c1)Nc1ccccc1S2	SF-295 CNS	false
O=C(Cc1ccc2c(c1)CN(C1CCC(=O)NC1=O)C2=O)NCCc1ccccc1 (configuration not stated)	SF-295 CNS	false
O=C(CSc1nnc(-c2ccc3nc(-c4ccccc4)[nH]c3c2)o1)Nc1ccc(Br)cc1	SF-295 CNS	false
O=c1[nH]n(C(=S)N/N=C/c2ccc(F)cc2)c(=O)c2ccccc12	SF-295 CNS	false
O=C(CS(=O)(=O)c1oc(-c2ccc(Cl)cc2)nc1S(=O)(=O)c1ccccc1)N1CCCC1	SF-295 CNS	false
CC1=C2C(=C[C@@](C)(COCOCCCl)[C@@H]2O)C(=O)[C@](C)(O)C12CC2	SF-295 CNS	true
O=c1c2ccccc2nc(COc2ccccc2)n1/N=C/c1ccc(N2CCOCC2)cc1	SF-295 CNS	false
Cn1c(O)c(N=Nc2nc(-c3cc4ccccc4oc3=O)cs2)c2cc(Br)ccc21	SF-295 CNS	false
O=C(c1ccc(O)cc1)C1[C@H](c2ccccc2Br)[C@@H](c2ccccc2)NC12C(=O)Nc1ccc(Br)cc12 (some centres not stated)	SF-295 CNS	false
CN(CCF)c1ccc(/C=C/C(=O)c2ccc(N)cc2O)cc1	SF-295 CNS	false
CC(=C(c1ccc(OCCCN(C)C)cc1)c1ccc(OCCCN(C)C)cc1)c1ccccc1	SF-295 CNS	true
CCCCCc1ccc(S(=O)(=O)N(C(C)=O)c2cc(-c3csc(N(C)C(C)=O)n3)ccc2N2CCN(C)CC2)cc1	SF-295 CNS	true

----------
Test system: SF-539 CNS
method description: NCI-60 one-dose screen, 48 h
measurement setup: 10 µM
The panel holds about 83,000 compounds, 20% with a hit somewhere; the sample as a whole holds those more often. Calls of active or inactive are those of the source. How the source made its calls: active means growth percent below 10; inactive means the rest.
Possible outcomes: Yes (active), No (inactive)

compound	assigned label
Cc1ccc(/C(CSc2nnc(-c3c[nH]c4ccccc34)n2-c2ccccc2)=N/O)cc1	No
COc1cc(OC(F)(F)F)ccc1C(=O)Nc1sc2c(c1C#N)CCC(=O)C2	Yes
Cc1ccc(C(=O)N/C(=C2/OCCN2C)[P+](c2ccccc2)(c2ccccc2)c2ccccc2)cc1	No
COc1cc2c3c(n(CCCN4CCOCC4)c(=O)c2cc1OC)-c1nc2c(cc1C3=O)OCO2	Yes
O=C(c1ccc(Cl)cc1)C1[C@H](c2ccc(Br)cc2)[C@@H](c2ccccc2)NC12C(=O)Nc1ccc(Cl)cc12 (stereo partly specified)	Yes
OCCNc1oc(-c2ccccc2)nc1[P+](c1ccccc1)(c1ccccc1)c1ccccc1	No
CC(C)C1=C[C@@]23CC[C@@H]4[C@](C)(CCC[C@]4(C)C(=O)NCc4ccccc4)[C@H]2C[C@@H]1[C@H]1C(=O)OC(=O)[C@H]13	No
CN(C)c1ccc(/C=C/c2nc3ccccc3c(=O)n2CC(=O)Nc2ccc(Cl)cc2)cc1	Yes
CC1(C)[C@@H](NCO)CC[C@]2(C)[C@H]3C(=O)C=C4[C@@H]5C[C@](C)(CO)CC[C@]5(C)CC[C@@]4(C)[C@]3(C)CC[C@@H]12	No
Nc1nc(-c2ccccc2)cs1	No
N#Cc1c(NC(=O)c2ccc(C(F)(F)F)cc2)sc2c1CCC(=O)C2	Yes
Cc1ccc(/C=C/C(=O)c2ccc(NC(=O)CSc3nnc(-c4c[nH]c5ccccc45)n3-c3ccccc3)cc2)cc1	Yes
CN1CCN(c2ccc(Nc3nc(NCCNC(=O)c4ccc(C(F)(F)F)cc4)c4sccc4n3)cc2)CC1	Yes
CCCn1c(=O)c2[nH]c(-c3ccc(OCc4nc5ccccc5[nH]4)cc3)nc2n(CCC)c1=O	Yes
C=C[C@H]1[C@H](O[C@@H]2OC(CO)[C@@H](O)[C@H](O)C2OC(=O)c2c(O)cc(O)cc2-c2cccc(O)c2)OC=C2C(=O)OCC[C@H]21 (stereo partly specified)	No
COc1cc(/C=C/C(=O)c2ccc(F)cc2)ccc1Oc1nc(Nc2ccc(F)cc2)nc(N(C)C)n1	No
O=C1CCC(N2Cc3cc(NC(=O)COc4ccccc4)ccc3C2=O)C(=O)N1 (stereo unspecified)	No
O=c1oc2ccc(-c3ccc(F)cc3F)cc2c(=O)n1-c1ccc(Cl)c(C(F)(F)F)c1	Yes
O=C(CSc1nnc(-c2c[nH]c3ccccc23)n1-c1ccccc1)Nc1ccc(C(=O)/C=C/c2ccc(Br)cc2)cc1	No
O=C(NC(=S)N1CCN(c2ncnc3c2cnn3-c2ccccc2)CC1)c1ccc(Cl)cc1	No
C=C1CC[C@H](C(=C)C)[C@H]2C=C(C)C(=O)C3=C(C(=O)[C@@](C)(O)C3)[C@H]12	Yes
O=C(Cn1cc(CSc2nnc3oc4ccccc4n23)nn1)Nc1ccc(Br)cc1	No
CN(CCF)c1ccc(/C=C/C(=O)c2ccc(N)cc2O)cc1	No
CCC(C)S(=O)(=O)c1oc(-c2ccc(C)cc2)nc1S(=O)(=O)c1ccccc1 (stereo unspecified)	Yes
CC1(c2ccccc2)NC(=O)N(CC(=O)Nc2ccc(C(=O)/C=C/c3ccccc3)cc2)C1=O (stereo unspecified)	No
COc1ccc(-c2cc(C(=O)N=Nc3c(O)[nH]c4ccc(Br)cc34)c3ccccc3n2)cc1	No
CN1CCN(c2ccc(Nc3nc(N4CCN(S(=O)(=O)c5ccc(Cl)cc5)CC4)c4sccc4n3)cc2)CC1	Yes
N#Cc1ccc(-c2nn(-c3ccc(C(=O)O)cc3)cc2CNc2cc(Cl)cc(C(F)(F)F)c2)cc1	Yes
CC(C)Sc1nc(NC2CC2)c(C#N)c(-c2ccccc2)n1	No
CC1=C2C(=C[C@@](C)(CO)[C@@H]2O)/C(=N\N)[C@](C)(O)C12CC2	Yes
CCN(CC)CCOc1ccc(C(=C(C)c2ccccc2)c2ccc(OCCN(CC)CC)cc2)cc1	Yes
C=C1CCC2C3(C)COC(c4cccc(F)c4)OC3CCC2(C)C1CC(O)C1=CCOC1=O (stereo unspecified)	No
CNC(=O)c1cc(-c2ccc(NC(=O)Nc3ccc(C)cc3)cc2)nc2cccnc12	No
O=c1[nH]c2ccccc2cc1CSc1ccc(Nc2nccc(-c3ccc(C(F)(F)F)cc3)n2)cc1	No
O=c1[nH]c2ccccc2cc1CSc1ccc(Nc2nccc(-c3ccc4ccccc4c3)n2)cc1	No
CN1CCN(Cc2ccc(NC(=O)c3cncc(C#Cc4cnc5ccc(N[C@@H]6CCOC6)nn45)c3)cc2C(F)(F)F)CC1	Yes
